Test system: Klebsiella aerogenes DSM 30053
Assay: fold change of Cadaverine concentration vs plate DMSO controls (fold change (ratio)); higher = more amine produced, active = hit call of the paper (significant change in both replicates, either direction)
Details: incubation time: 27 h, anaerobic, 37 °C
Structures can show the parent of a compound that is named as a salt.
measure: fold change of Cadaverine concentration

{"columns": ["compound", "target_under_test", "measure", "endpoint_value"],
 "data": [
  ["CCOc1ccccc1OCC1CNCCO1 (centres undefined) [Viloxazine hydrochloride] (20 µM)", "Klebsiella aerogenes DSM 30053", "fold change of Cadaverine concentration", 0.992],
  ["CCc1cccc2c3c([nH]c12)C(CC)(CC(=O)O)OCC3 (centres undefined) [Etodolac] (20 µM)", "Klebsiella aerogenes DSM 30053", "fold change of Cadaverine concentration", 0.991],
  ["CC12CC3CC(C)(C1)CC(N)(C3)C2 [Memantine hydrochloride] (20 µM)", "Klebsiella aerogenes DSM 30053", "fold change of Cadaverine concentration", 0.992],
  ["C[C@@H]1C[C@H]2[C@@H]3CCC4=CC(=O)C=C[C@]4(C)[C@@]3(Cl)[C@@H](O)C[C@]2(C)[C@@]1(OC(=O)c1ccco1)C(=O)CCl [Mometasone furoate] (20 µM)", "Klebsiella aerogenes DSM 30053", "fold change of Cadaverine concentration", 1.03]
]}
